So I've got a bunch of molecules here, and I need their half-life values.
# experiment.notes: Metabolic stability in human liver microsomes assessed as half-life preincubated for 5 mins followed by NADPH addition and measured upto 60 mins by HPLC-MS/MS analysis
# Assay type: ADME, Microsome
# condition.description: time < 65 min

Query block: Give the measured half-life of "CCNc1nc(C)cc(N2CCN(C(=O)c3cccc(I)c3)CC2)n1" .
Result block: 42 min

Query block: Give the measured half-life of "CCNc1nc(C)cc(N2CCN(C(=O)c3ccc(Cl)c(C(F)(F)F)c3)CC2)n1" .
Result block: > 60 min

Query block: Give the measured half-life of "CCNc1nc(C)cc(N2CCN(C(=O)c3cc(Cl)cc(Cl)c3)CC2)n1" .
Result block: > 60 min

Query block: Give the measured half-life of "CCNc1cc(C)nc(N2CCN(C(=O)c3ccc(Br)cc3)CC2)n1" .
Result block: > 60 min

Query block: Give the measured half-life of "Cc1cc(N2CCN(S(=O)(=O)c3ccc(Cl)cc3)CC2)nc(NC(C)C)n1" .
Result block: 54 min

Query block: Give the measured half-life of "CCNc1nc(N2CCN(C(=O)c3cc(Cl)cc(Cl)c3)CC2)cc(C(F)(F)F)n1" .
Result block: 29 min

Query block: Give the measured half-life of "CCNc1nc(C)cc(N2CCC3(CC2)CC(=O)c2ccccc2O3)n1" .
Result block: > 60 min

Query block: Give the measured half-life of "CCNc1nc(C)cc(N2CCN(C(=O)c3ccccc3)CC2)n1" .
Result block: > 60 min

Query block: Give the measured half-life of "CCNc1ccnc(N2CCN(C(=O)c3ccc(Cl)cc3)CC2)n1" .
Result block: > 60 min

Query block: Give the measured half-life of "CCNc1nc(C)cc(N2CCN(C(=O)c3ccc(C)c(C)c3)CC2)n1" .
Result block: > 60 min

Query block: Give the measured half-life of "CNc1ccnc(N2CCN(S(=O)(=O)c3ccc(F)cc3)CC2)n1" .
Result block: 48 min

Query block: Give the measured half-life of "CCNc1nc(C)cc(N2CCN(C(=O)c3ccc(C)cc3)CC2)n1" .
Result block: > 60 min

Query block: Give the measured half-life of "CCNc1nc(C)cc(N2CC3CCC(C2)N3C(=O)c2cc(Cl)cc(Cl)c2)n1" .
Result block: > 60 min

Query block: Give the measured half-life of "CCNc1ccnc(N2CCN(S(=O)(=O)c3ccc(Cl)cc3)CC2)n1" .
Result block: 19 min

Query block: Give the measured half-life of "CCNc1cc(C)nc(NC2CCN(C(=O)c3cc(Cl)cc(Cl)c3)CC2)n1" .
Result block: 30 min

Query block: Give the measured half-life of "CCNc1cc(C(F)(F)F)nc(N2CCN(C(=O)c3cccc(Br)c3)CC2)n1" .
Result block: 17 min

Query block: Give the measured half-life of "Cc1cc(N2CCN(C(=O)c3cc(Cl)cc(Cl)c3)CC2)nc(N(C)C)n1" .
Result block: > 60 min

Query block: Give the measured half-life of "CCNc1cc(C)nc(N2CCN(C(=O)c3cccc(Br)c3)CC2)n1" .
Result block: 9.5 min

Query block: Give the measured half-life of "CCNc1ccnc(N2CCN(C(=O)c3ccc(F)cc3)CC2)n1" .
Result block: > 60 min

Query block: Give the measured half-life of "CCNc1cc(C)nc(N2CCN(C(=O)c3ccc(I)cc3)CC2)n1" .
Result block: > 60 min

Query block: Give the measured half-life of "CCNc1cc(C(F)(F)F)nc(N2CCN(C(=O)c3ccc(Br)cc3)CC2)n1" .
Result block: 56 min

Query block: Give the measured half-life of "CCNc1cc(N2CCN(S(=O)(=O)c3ccc(Cl)cc3)CC2)ncn1" .
Result block: > 60 min

Query block: Give the measured half-life of "CCNc1nc(C)cc(N2CCN(S(=O)(=O)c3ccc(Cl)cc3)CC2)n1" .
Result block: 49 min

Query block: Give the measured half-life of "CCNc1nc(C)cc(N2CCN(C(=O)c3ccc([N+](=O)[O-])cc3Cl)CC2)n1" .
Result block: > 60 min

Query block: Give the measured half-life of "CCNc1nc(C)cc(N2CCN(C(=O)c3ccc(Cl)c([N+](=O)[O-])c3)CC2)n1" .
Result block: > 60 min

Query block: Give the measured half-life of "CCNc1nc(C)cc(N2CCN(C(=O)c3cccc(Br)c3)CC2)n1" .
Result block: > 60 min

Query block: Give the measured half-life of "CCNc1nc(C)cc(N2CCN(C(=O)c3ccc(Cl)c(Cl)c3)CC2)n1" .
Result block: > 60 min

Query block: Give the measured half-life of "CCNc1cc(C(F)(F)F)nc(N2CCN(C(=O)c3ccc(Cl)c(Cl)c3)CC2)n1" .
Result block: 36 min
